Assay: Thermodynamic (equilibrium) solubility of the compound measured after 3 days agitation in pH 2 buffer by LC-MS/MS analysis
Type: physicochemical
Conditions: time 3 day, read-out: Therm_solubility
Mark Not fulfilled for solubility thermodynamic at 72 h values under 0.3 µM, and Fulfilled for everything at or above.

SMILES CODE: C[C@@H]1[C@@H](C)C/C=C(\F)[C@H](OCCN2CCOCC2)[C@@H]2OCC[C@H]2CN2C[C@@]3(CCCc4cc(Cl)ccc43)COc3ccc(cc32)C(=O)NS1(=O)=O
LABEL CLASS: Fulfilled

SMILES CODE: COc1nn(C)cc1C(=O)N[S@@]1(=O)=NC(=O)c2ccc3c(c2)N(C[C@@H]2CCO[C@H]2[C@H](OC)/C(F)=C/C[C@H](C)C1)C[C@@]1(CCCc2cc(Cl)ccc21)CO3
LABEL CLASS: Not fulfilled

SMILES CODE: COc1nn(C)cc1C(=O)N[S@@]1(=O)=NC(=O)c2ccc3c(c2)N(C[C@@H]2CCO[C@H]2[C@@H](OC)/C=C/C[C@H](C)C1)C[C@@]1(CCCc2cc(Cl)ccc21)CO3
LABEL CLASS: Not fulfilled

SMILES CODE: C[C@@H]1[C@@H](C)C/C=C/[C@H](O)[C@@H]2OCC[C@H]2CN2C[C@@]3(CCCc4cc(Cl)ccc43)COc3ccc(cc32)C(=O)NS1(=O)=O
LABEL CLASS: Not fulfilled

SMILES CODE: CO[C@H]1/C(F)=C/C[C@H](C)[C@@H](C)S(=O)(=O)NC(=O)c2cnc3c(n2)N(C[C@@H]2CCO[C@H]21)C[C@@]1(CCCc2cc(Cl)ccc21)CO3
LABEL CLASS: Not fulfilled

SMILES CODE: CO[C@@]1(CN2CCN3CCOC[C@@H]3C2)/C(F)=C/C[C@H](C)[C@H](C)S(=O)(=O)NC(=O)c2ccc3c(c2)N(C[C@@H]2CCO[C@H]21)C[C@@]1(CCCc2cc(Cl)ccc21)CO3
LABEL CLASS: Fulfilled

SMILES CODE: C[C@@H]1[C@@H](C)C/C=C/[C@H](OCCN2CCOCC2)[C@@H]2OCC[C@H]2CN2C[C@@]3(CCCc4cc(Cl)ccc43)COc3ccc(cc32)C(=O)NS1(=O)=O
LABEL CLASS: Fulfilled

SMILES CODE: C/C1=C\C[C@H](C)[C@@H](C)S(=O)(=O)NC(=O)c2ccc3c(c2)N(C[C@@H]2CCO[C@H]2[C@H]1CO)C[C@@]1(CCCc2cc(Cl)ccc21)CO3
LABEL CLASS: Not fulfilled

SMILES CODE: COC[C@H]1/C(C)=C/C[C@H](C)[C@@H](C)S(=O)(=O)NC(=O)c2ccc3c(c2)N(C[C@@H]2CCO[C@H]21)C[C@@]1(CCCc2cc(Cl)ccc21)CO3
LABEL CLASS: Not fulfilled

----------
System: MOLP-8
Experiment: Induction apoptosis in human MOLP8 cells assessed as cell killing measured after 2 hrs by Caspase-Glo 3/7 Assay
Assay type: functional, cell-based
Conditions: MOLP-8, 2 h
MEASURED QUANTITY: log10 of AC50 (log10 of the value in nM)

SMILES CODE: COc1nn(C)cc1C(=O)N[S@@]1(=O)=NC(=O)c2ccc3c(c2)N(C[C@@H]2CCO[C@H]2[C@@](CN2CCN4CCOC[C@@H]4C2)(OC)/C(F)=C/C[C@H](C)C1)C[C@@]1(CCCc2cc(Cl)ccc21)CO3
log10 of AC50: 1.37

SMILES CODE: CO[C@H]1/C(F)=C/C[C@H](C)[C@@H](C)S(=O)(=O)NC(=O)c2ccc3c(c2)N(C[C@@H]2CCO[C@H]21)C[C@@]1(CCCc2cc(Cl)ccc21)CO3
log10 of AC50: 2.28

SMILES CODE: C[C@@H]1[C@@H](C)C/C=C/[C@H](OCCN2CCOCC2)[C@@H]2OCC[C@H]2CN2C[C@@]3(CCCc4cc(Cl)ccc43)COc3ccc(cc32)C(=O)NS1(=O)=O
log10 of AC50: 2.79

SMILES CODE: COc1nn(C)cc1C(=O)N[S@@]1(=O)=NC(=O)c2ccc3c(c2)N(C[C@@H]2CCO[C@H]2[C@@H](OC)/C(F)=C/C[C@H](C)C1)C[C@@]1(CCCc2cc(Cl)ccc21)CO3
log10 of AC50: 1.64

SMILES CODE: COc1nn(C)cc1C(=O)N[S@@]1(=O)=NC(=O)c2ccc3c(c2)N(C[C@@H]2CC[C@H]2[C@@H](OC)/C=C/C[C@H](C)C1)C[C@@]1(CCCc2cc(Cl)ccc21)CO3
log10 of AC50: 1.84

SMILES CODE: COc1nn(C)cc1C(=O)N[S@]1(=O)=NC(=O)c2ccc3c(c2)N(C[C@@H]2CCO[C@H]2[C@@](CN2CCN4CCOC[C@@H]4C2)(OC)/C(F)=C/C[C@H](C)C1)C[C@@]1(CCCc2cc(Cl)ccc21)CO3
log10 of AC50: 2.63

SMILES CODE: CO[C@]1(CN2CCN3CCCC[C@@H]3C2)/C=C/C[C@H](C)[C@@H](C)S(=O)(=O)NC(=O)c2ccc3c(c2)N(C[C@@H]2CC[C@H]21)C[C@@]1(CCCc2cc(Cl)ccc21)CO3
log10 of AC50: 2.08

SMILES CODE: C[C@@H]1[C@@H](C)C/C=C(\F)[C@@](O)(CN2CCN3CCCC[C@@H]3C2)[C@@H]2OCC[C@H]2CN2C[C@@]3(CCCc4cc(Cl)ccc43)COc3ccc(cc32)C(=O)NS1(=O)=O
log10 of AC50: 3.42
